# study_system: Sigma intracellular receptor 2 (Rattus norvegicus, UniProt Q5U3Y7)
# Sequence (Q5U3Y7 whole entry): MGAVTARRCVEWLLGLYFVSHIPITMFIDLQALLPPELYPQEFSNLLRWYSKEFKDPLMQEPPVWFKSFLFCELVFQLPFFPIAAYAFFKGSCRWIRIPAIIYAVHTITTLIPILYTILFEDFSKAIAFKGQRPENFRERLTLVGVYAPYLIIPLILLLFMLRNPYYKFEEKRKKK
# assay_summary: Displacement of [3H]-di-o-tolylguanidine from sigma2 receptor in rat liver membrane incubated for 120 mins by liquid scintillation counting method relative to control
pKi: −log10 of the molar value.
measured_property: pKi

CN(C)CC[C@@H]1CCC[C@H](c2ccccc2)C1; 7.12
CN(C)CC[C@H]1CCC[C@@H](c2ccccc2)C1; 6.81
c1ccc(CNCC[C@H]2CCC[C@@H](c3ccccc3)C2)cc1; 7.33
c1ccc(CNCC[C@@H]2CCC[C@H](c3ccccc3)C2)cc1; 7.31
c1ccc(CNCC[C@H]2CCC[C@H](c3ccccc3)C2)cc1; 7.34
c1ccc([C@H]2CCC[C@H](CCN3CCN(c4ccccc4)CC3)C2)cc1 (relative stereo); 6.84
c1ccc(CNCC[C@@H]2CCC[C@H](c3ccccc3)C2)cc1 (relative stereo); 6.89
CN(C)CCC1CCCC(c2ccccc2)C1 (mixture of isomers); 6.94
c1ccc(CNCC[C@@H]2CCC[C@@H](c3ccccc3)C2)cc1 (relative stereo); 6.57
c1ccc([C@H]2CCC[C@@H](CCN3CCCC3)C2)cc1 (relative stereo); 7.21

====

# Tested on: DU-145
# assay_summary: Antiproliferative activity against human DU145 cells assessed as reduction in cell viability at 10 uM incubated for 72 hrs by SRB assay
# Type: functional, cell-based
Calls of active or inactive are those of the source. The calls are words filed in the database; no cut-off is given here.
Outcomes: active, inactive

c1ccc(CNCC[C@@H]2CCC[C@H](c3ccccc3)C2)cc1 (relative stereo); active
c1ccc([C@H]2CCC[C@H](CCN3CCN(c4ccccc4)CC3)C2)cc1 (relative stereo); inactive
c1ccc(CNCC[C@@H]2CCC[C@H](c3ccccc3)C2)cc1; active
c1ccc(CNCC[C@H]2CCC[C@H](c3ccccc3)C2)cc1; inactive
c1ccc(CNCC[C@H]2CCC[C@@H](c3ccccc3)C2)cc1; active
c1ccc(CNCC[C@@H]2CCC[C@@H](c3ccccc3)C2)cc1; inactive
c1ccc([C@H]2CCC[C@@H](CCN3CCN(c4ccccc4)CC3)C2)cc1 (relative stereo); inactive

====

# assay_summary: Metabolic stability in mouse liver microsomes assessed as parent compound remaining measured after 90 mins in presence of NADPH
measured_property: remaining at 1.5 h (%)

c1ccc(CNCC[C@@H]2CCC[C@H](c3ccccc3)C2)cc1; 43

====

# Species: Sus scrofa
# assay_summary: Displacement of [3H]-MK-801 from NMDA receptor PCP binding site in pig brain cortex at 1 uM incubated for 150 mins by liquid scintillation counting method relative to control
# Type: tissue-based
# inhibition values compiled below
measured_property: inhibition (%)

c1ccc(CCCCNCCC2CCCC(c3ccccc3)C2)cc1 (mixture of isomers); 11
c1ccc([C@@H]2CCC[C@@H](CCN3CCCC3)C2)cc1 (relative stereo); 28
c1ccc(CNCC[C@@H]2CCC[C@H](c3ccccc3)C2)cc1 (relative stereo); 11
NCC[C@H]1CCC[C@H](c2ccccc2)C1; 31
CN(C)CCC1CCCC(c2ccccc2)C1 (mixture of isomers); 25
c1ccc(CNCC[C@@H]2CCC[C@@H](c3ccccc3)C2)cc1 (relative stereo); 31
NCC[C@H]1CCC[C@@H](c2ccccc2)C1; 14

====

# study_system: Sigma intracellular receptor 2 (Rattus norvegicus)
# assay_summary: Displacement of [3H]-di-o-tolylguanidine from sigma2 receptor in rat liver membrane at 1 uM incubated for 120 mins by liquid scintillation counting method relative to control
# Type: cell membranes
measured_property: inhibition (%)

NCC[C@@H]1CCC[C@H](c2ccccc2)C1; 38
NCC[C@@H]1CCC[C@@H](c2ccccc2)C1; 43
NCC[C@H]1CCC[C@@H](c2ccccc2)C1; 24
NCC[C@H]1CCC[C@H](c2ccccc2)C1; 60

====

# assay_summary: n-octanol/aqueous buffer distribution coefficient, log D of compound at pH 7.4 by LC-MS analysis
# Format: physicochemical
measured_property: logD

c1ccc(CNCC[C@@H]2CCC[C@H](c3ccccc3)C2)cc1; 3.23
c1ccc(CNCC[C@H]2CCC[C@H](c3ccccc3)C2)cc1; 3.34

====

Documented Ki across a set of compounds
# study_system: Sigma non-opioid intracellular receptor 1 (Cavia porcellus)
# Sequence (Q60492 whole entry): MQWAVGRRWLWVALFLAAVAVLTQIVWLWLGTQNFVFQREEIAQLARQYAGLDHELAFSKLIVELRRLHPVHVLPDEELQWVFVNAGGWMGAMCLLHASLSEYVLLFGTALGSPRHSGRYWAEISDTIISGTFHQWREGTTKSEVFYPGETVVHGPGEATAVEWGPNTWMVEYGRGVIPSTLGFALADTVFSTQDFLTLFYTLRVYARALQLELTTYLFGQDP
# assay_summary: Displacement of [3H]-pentazocine from sigma1 receptor in guinea pig brain membrane incubated for 120 mins by liquid scintillation counting method
# Assay type: cell membranes
measured_property: Ki

c1ccc(CNCC[C@H]2CCC[C@@H](c3ccccc3)C2)cc1; 1.3 nM
NCC[C@@H]1CCC[C@H](c2ccccc2)C1; 167 nM
c1ccc([C@@H]2CCC[C@@H](CCN3CCCC3)C2)cc1 (relative stereo); 2 nM
NCC[C@@H]1CCC[C@@H](c2ccccc2)C1; 43 nM
c1ccc([C@H]2CCC[C@@H](CCN3CCN(c4ccccc4)CC3)C2)cc1 (relative stereo); 16 nM
c1ccc(CNCC[C@@H]2CCC[C@H](c3ccccc3)C2)cc1 (relative stereo); 1.8 nM
c1ccc(CNCC[C@@H]2CCC[C@H](c3ccccc3)C2)cc1; 0.61 nM
CN(C)CC[C@@H]1CCC[C@H](c2ccccc2)C1; 14 nM

====

# study_system: Sigma intracellular receptor 2 (Rattus norvegicus, UniProt Q5U3Y7)
# assay_summary: Displacement of [3H]-di-o-tolylguanidine from sigma2 receptor in rat liver membrane incubated for 120 mins by liquid scintillation counting method relative to control
measured_property: Ki

c1ccc([C@@H]2CCC[C@@H](CCN3CCCC3)C2)cc1 (relative stereo); 0.033 µM
c1ccc(CCCCNCCC2CCCC(c3ccccc3)C2)cc1 (mixture of isomers); 0.093 µM
c1ccc(CNCC[C@@H]2CCC[C@@H](c3ccccc3)C2)cc1; 0.057 µM
c1ccc([C@H]2CCC[C@@H](CCN3CCN(c4ccccc4)CC3)C2)cc1 (relative stereo); 0.118 µM

====

# study_system: Sigma non-opioid intracellular receptor 1 (Cavia porcellus)
# assay_summary: Displacement of [3H]-pentazocine from sigma1 receptor in guinea pig brain membrane incubated for 120 mins by liquid scintillation counting method
pKi: −log10 of the molar value.
measured_property: pKi

c1ccc([C@H]2CCC[C@H](CCN3CCN(c4ccccc4)CC3)C2)cc1 (relative stereo); 7.89
NCC[C@H]1CCC[C@H](c2ccccc2)C1; 6.22
c1ccc(CNCC[C@@H]2CCC[C@@H](c3ccccc3)C2)cc1; 8.74
NCC[C@H]1CCC[C@@H](c2ccccc2)C1; 6.86
c1ccc(CNCC[C@H]2CCC[C@H](c3ccccc3)C2)cc1; 8.85
c1ccc(CNCC[C@@H]2CCC[C@@H](c3ccccc3)C2)cc1 (relative stereo); 8.62
c1ccc([C@H]2CCC[C@@H](CCN3CCCC3)C2)cc1 (relative stereo); 8.44
c1ccc(CCCCNCCC2CCCC(c3ccccc3)C2)cc1 (mixture of isomers); 8.52
CN(C)CCC1CCCC(c2ccccc2)C1 (mixture of isomers); 8.38
CN(C)CC[C@H]1CCC[C@@H](c2ccccc2)C1; 8.00

====

Listing: inhibition of selected molecules
# Species on record: Sus scrofa
# assay_summary: Displacement of [3H]-MK-801 from NMDA receptor PCP binding site in pig brain cortex at 1 uM incubated for 150 mins by liquid scintillation counting method relative to control
# Format: tissue-based
measured_property: inhibition

c1ccc([C@H]2CCC[C@@H](CCN3CCCC3)C2)cc1 (relative stereo); 36%
NCC[C@@H]1CCC[C@@H](c2ccccc2)C1; 15%
c1ccc([C@H]2CCC[C@@H](CCN3CCN(c4ccccc4)CC3)C2)cc1 (relative stereo); 0%
NCC[C@@H]1CCC[C@H](c2ccccc2)C1; 11%
c1ccc([C@H]2CCC[C@H](CCN3CCN(c4ccccc4)CC3)C2)cc1 (relative stereo); 0%
